- Assay Comment: Mucolytic activity: obstruction of the bronchial tract after SO2 inhalation
- Type: in vivo, Sprague Dawley male rats
- Test Context: i.m., 250 mg/kg; SO2, 15 days
Hi there, I'd appreciate the recorded Total obstruction, nodular mass (% incidence) for every entry that follows.

Query: Form field: reported Total obstruction, nodular mass (% incidence) of CC[C@H]1OC(=O)[C@H](C)[C@@H](O[C@H]2C[C@@](C)(OC)[C@@H](O)[C@H](C)O2)[C@H](C)[C@@H](O[C@@H]2O[C@H](C)C[C@H](N(C)C)[C@H]2O)[C@](C)(O)C[C@@H](C)C(=O)[C@H](C)[C@@H](O)[C@]1(C)O [RV04, erythromycin-S-carboxymethylcysteinate]
Reply: 13.33%

Query: Try CCOC(=O)CCC(=O)O[C@H]1[C@H](O[C@@H]2[C@@H](C)[C@H](O[C@H]3C[C@@](C)(OC)[C@@H](O)[C@H](C)O3)[C@@H](C)C(=O)O[C@H](CC)[C@@](C)(O)[C@H](O)[C@@H](C)C(=O)[C@H](C)C[C@@]2(C)O)O[C@H](C)C[C@@H]1N(C)C [erythromycin ethyl succinate, reference compound] next.
Reply: 26.66%

Query: Try CC[C@H]1OC(=O)[C@H](C)[C@@H](O[C@H]2C[C@@](C)(OC)[C@@H](O)[C@H](C)O2)[C@H](C)[C@@H](O[C@@H]2O[C@H](C)C[C@H](N(C)C)[C@H]2O)[C@](C)(O)C[C@@H](C)C(=O)[C@H](C)[C@@H](O)[C@]1(C)O [RV03, erythromycyn-thiazolidin-carboxylate] next.
Reply: 20%

Query: Try CC[C@H]1OC(=O)[C@H](C)[C@@H](O[C@H]2C[C@@](C)(OC)[C@@H](O)[C@H](C)O2)[C@H](C)[C@@H](O[C@@H]2O[C@H](C)C[C@H](N(C)C)[C@H]2O)[C@](C)(O)C[C@@H](C)C(=O)[C@H](C)[C@@H](O)[C@]1(C)O [RV05, erythromycin-N-acetylcysteinate] next.
Reply: 13.33%

Query: Try CC[C@H]1OC(=O)[C@H](C)[C@@H](O[C@H]2C[C@@](C)(OC)[C@@H](O)[C@H](C)O2)[C@H](C)[C@@H](O[C@@H]2O[C@H](C)C[C@H](N(C)C)[C@H]2O)[C@](C)(O)C[C@@H](C)C(=O)[C@H](C)[C@@H](O)[C@]1(C)O [RV01, erythromycin alpha-mercaptosuccinate] next.
Reply: 6.66%
